Listed next: entries and their corresponding pest or weed control at 280 g/ha.
System: Ambrosia artemisiifolia (AMBEL), common ragweed
ASSAY OVERVIEW: Postemergence herbicide evaluation, growth of Ambrosia artemisiifolia (AMBEL)
Format: in vivo
STUDY CONDITIONS: Ambrosia artemisiifolia, post-emergence, 168 h, 280 g ae/ha, 7 DAA; read-out: AVE. AMBEL, percent reduction in plant size relative to the untreated control
REPORTED METRIC: pest or weed control at 280 g/ha (%)

COMPOUND	EXPERIMENTAL VALUE
C/C(=N\OC(=O)COc1ccc(Cl)cc1Cl)c1ccccc1Cl	70
O=C(COc1ccc(Cl)cc1Cl)Nc1ccon1 [Compound D2]	68
O=C(COc1ccc(Cl)cc1Cl)O/N=C1\CCCc2ccccc21	70
O=C(COc1ccc(Cl)cc1Cl)Oc1ncc(Cl)cn1	70
C[N+](C)(C)CCOC(=O)COc1ccc(Cl)cc1Cl.[Cl-]	63
N/C(=N\OC(=O)COc1ccc(Cl)cc1Cl)c1ccco1	60
N/C(=N\OC(=O)COc1ccc(Cl)cc1Cl)c1cccnc1	60
O=C(COc1ccc(Cl)cc1Cl)Nc1c(Cl)c(F)nc(F)c1Cl	35
C/C(=N\OC(=O)COc1ccc(Cl)cc1Cl)c1ccncc1	80
O=C(COc1ccc(Cl)cc1Cl)O/N=C/c1cccnc1	77.5
CC(C)CONC(=O)COc1ccc(Cl)cc1Cl	90
O=C(COc1ccc(Cl)cc1Cl)O/N=C/c1ccncc1	85
O=C(COc1ccc(Cl)cc1Cl)Nc1nccs1	77.5
